Test system: hiPSC-CM (iCell Cardiomyocytes^2)
Assay: Intracellular miRNA expression by RT-qPCR in hiPSC-CM pellets after 72-hour treatment
Conditions: 1 µM, 72 h
Structures can show the parent of a compound that is named as a salt.
For each of the compounds below, state its hsa-miR-133b fold change, intracellular.
Give bare numbers.

As a guide, the following entries are already answered.
// Cc1nc(Nc2ncc(C(=O)Nc3c(C)cccc3Cl)s2)cc(N2CCN(CCO)CC2)n1 [Dasatinib] : hsa-miR-133b fold change, intracellular value = 1.6

// Cc1cn(-c2cc(NC(=O)c3ccc(C)c(Nc4nccc(-c5cccnc5)n4)c3)cc(C(F)(F)F)c2)cn1 [Nilotinib] : hsa-miR-133b fold change, intracellular value = 0.3

// CC(C)C[C@H](NC(=O)CNC(=O)c1cc(Cl)ccc1Cl)B1OC(=O)C(CC(=O)O)(CC(=O)O)O1 [Ixazomib Citrate] : hsa-miR-133b fold change, intracellular value = 0.6

Others:
// CC(C)C[C@H](NC(=O)[C@H](CCc1ccccc1)NC(=O)CN1CCOCC1)C(=O)N[C@@H](Cc1ccccc1)C(=O)N[C@@H](CC(C)C)C(=O)[C@@]1(C)CO1 [Carfilzomib] : hsa-miR-133b fold change, intracellular value = 0.3

Origin of values: paper PMC12332266
